- experimentDescription: Oral bioavailability of compound in rhesus macaques
- Assay type: ADME, organism-based, Macaca mulatta
- conditionContext: rhesus monkey, in vivo
measurementKind: bioavailability (%)

> print(dat)
                                   molecule  recordedresult
1  Cc1nc(N)ccc1CNC(=O)Cn1c(C)cnc(NCCc2ccccc2)c1=O [L-375378]              60

---

- experimentDescription: Half-life of compound in dog following p.o. administration of 0.9 mg/kg
- Format: ADME, organism-based, Canis lupus familiaris
- Set-up: dose 0.9 mg/kg, route oral
- conditionContext: in vivo, po
measurementKind: half-life (h)

> print(dat)
                    compoundstructurestring  recordedresult
1  Cc1ccc(-n2cncn2)c(CNC(=O)CN2C=CN=C(NCC(F)(F)c3ccccn3)C2)c1             1.2

---

- targetUnderTest: Prothrombin (Homo sapiens)
pKi: −log10 of the molar value.
Mark True for reported pKi of 9 or greater; mark False for anything smaller.

> print(dat)
                     compoundstructurestring  labelclass
 1  Cc1ccc(NS(=O)(=O)Cc2ccccc2)c(=O)n1CC(=O)NCc1cc(Cl)ccc1-n1cncn1        True
 2  O=C(Cn1c(Cl)cnc(NCC(F)(F)c2ccccn2)c1=O)NCc1ccccc1-c1cc[nH]n1       False
 3  Cc1ccc(NS(=O)(=O)Cc2ccccc2)c(=O)n1CC(=O)NCc1ccccc1-n1cncn1       False
 4  Cn1nnc(-c2ccccc2CNC(=O)Cn2c(Cl)cnc(NCC(F)(F)c3ccccn3)c2=O)n1       False
 5  O=C(Cn1c(Cl)cnc(NCC(F)(F)c2ccccn2)c1=O)NCc1cccc(Cl)c1        True
 6  O=C(Cn1c(Cl)cnc(NCC(F)(F)c2ccccn2)c1=O)NCc1ccccc1-n1ccnc1       False
 7  Cc1ccc(-n2cncn2)c(CNC(=O)CN2C=CN=C(NCC(F)(F)c3ccccn3)C2)c1        True
 8  O=C(Cn1c(Cl)cnc(NCC(F)(F)c2ccccn2)c1=O)NCc1ccccc1       False
 9  N[C@H](Cc1ccccn1)C(=O)N1CCC[C@H]1CC(=O)NCc1ccccc1-n1cncn1       False
10  O=C(Cn1c(Cl)cnc(NCC(F)(F)c2ccccn2)c1=O)NCc1ccccc1-n1cccn1       False
11  O=C(Cn1ccnc(NCC(F)(F)c2ccccn2)c1=O)NCc1cc(Cl)ccc1-n1cnnn1        True
12  Cc1ccc(NS(=O)(=O)Cc2ccccc2)c(=O)n1CC(=O)NCc1cc(Cl)ccc1-n1cnnn1        True
13  O=C(Cn1c(Cl)cnc(NCC(F)(F)c2ccccn2)c1=O)NCc1cc(Cl)ccc1-n1cnnn1        True
14  O=C(Cn1c(Cl)cnc(NCC(F)(F)c2ccccn2)c1=O)NCc1ccccc1-c1ncc[nH]1       False
15  O=C(Cn1c(Cl)cnc(NCC(F)(F)c2cccc[n+]2[O-])c1=O)NCc1cc(Cl)ccc1-n1cncn1        True
16  O=C(Cn1c(Cl)cnc(NCC(F)(F)c2ccccn2)c1=O)NCc1ncccc1-n1cnnn1        True
17  N[C@H](Cc1ccccc1)C(=O)N1CCC[C@H]1CC(=O)NCc1cc(Cl)ccc1-n1cnnn1        True
18  N[C@H](Cc1ccccn1)C(=O)N1CCC[C@H]1CC(=O)NCc1cc(Cl)ccc1-n1cnnn1        True
19  O=C(Cn1c(Cl)cnc(NCC(F)(F)c2ccccn2)c1=O)NCc1cc(Cl)ccc1-n1cncn1        True
20  O=C(Cn1c(Cl)cnc(NCC(F)(F)c2ccccn2)c1=O)NCc1ccccc1-n1cnnc1       False
21  O=C(Cn1ccnc(NCC(F)(F)c2cccc[n+]2[O-])c1=O)NCc1cc(Cl)ccc1-n1cncn1        True
